Entry source: ChEMBL document CHEMBL3600357

Test: Cmax in beagle dog at 0.3 mg/kg, po
Format: ADME, organism-based, Canis lupus familiaris
Parameters: dose 0.3 mg/kg, route oral
Conditions: in vivo
parameter-measured: Cmax (µM)

> print(dat)
                         chemical.structure  meas.value
1  COc1cc2c(cc1OC(C)C)[C@H](c1ccc(Cl)cc1)N(c1ccc(N(C)C[C@H]3CC[C@H](N4CCN(C)C(=O)C4)CC3)cc1)C(=O)C2       0.251

###

Test: Octanol water partition coefficient, logP of the compound
Assay type: physicochemical
parameter-measured: logP

> print(dat)
                         chemical.structure  qualifier.operator  meas.value
1  COc1cc2c(cc1OC(C)C)[C@H](c1ccc(Cl)cc1)N(c1ccc(N(C)C[C@H]3CC[C@H](N4CCNC(=O)C4)CC3)cc1)C(=O)C2                   =         5.3
2  COc1cc2c(cc1OC(C)C)[C@H](c1ccc(Cl)cc1)N(c1ccc(N(C)C[C@H]3CC[C@H](N4CCN(C)C(=O)C4)CC3)cn1)C(=O)C2                   =         4.6
3  COc1cc2c(cc1OC(C)C)[C@H](c1ccc(Cl)cc1)N(c1ccc(N(C)C[C@H]3CC[C@H](N4CCN(C)C(=O)C4)CC3)nc1)C(=O)C2                   =         4.8
4  COc1cc2c(cc1OC(C)C)[C@H](c1ccc(Cl)cc1)N(c1cnc(N(C)C[C@H]3CC[C@H](N4CCN(C)C(=O)C4)CC3)cn1)C(=O)C2                   =         4.6
5  COc1cc2c(cc1OC(C)C)[C@H](c1ccc(Cl)cc1)N(c1ccc(N(C)C[C@H]3CC[C@H](N(C)C)CC3)nc1)C(=O)C2                   >         6.3
6  COc1cc2c(cc1OC(C)C)[C@H](c1ccc(Cl)cc1)N(c1ccc(N(C)C[C@H]3CC[C@H](N(C)C)CC3)cc1)C(=O)C2                   >         4.2
7  COc1cc2c(cc1OC(C)C)[C@H](c1ccc(Cl)cc1)N(c1ccc(N(C)C[C@H]3CC[C@H](N4CC(=O)N(C)C4)CC3)nc1)C(=O)C2                   =         4.4
8  COc1cc2c(cc1OC(C)C)[C@H](c1ccc(Cl)cc1)N(c1ccc(N(C)C[C@H]3CC[C@H](N4CCN(C)C(=O)C4)CC3)cc1)C(=O)C2                   =         5.8

###

Assay: AUC (0 to 24 hrs) in human SJSA1 cells xenografted rat assessed as mouse survival at 30 mg/kg, po qd
Format: ADME, organism-based, SJSA-1
Design: time < 24 hr, dose 30 mg/kg, route oral
Details: in vivo
parameter-measured: AUC at 24 h (µM·h)

> print(dat)
                         chemical.structure  measure.unit  meas.value
1  COc1cc2c(cc1OC(C)C)[C@H](c1ccc(Cl)cc1)N(c1ccc(N(C)C[C@H]3CC[C@H](N4CCN(C)C(=O)C4)CC3)cc1)C(=O)C2          µM·h         421

###

Molecular target: Baculoviral IAP repeat-containing protein 2 (Homo sapiens, UniProt Q13490)
Sequence (Q13490 whole entry): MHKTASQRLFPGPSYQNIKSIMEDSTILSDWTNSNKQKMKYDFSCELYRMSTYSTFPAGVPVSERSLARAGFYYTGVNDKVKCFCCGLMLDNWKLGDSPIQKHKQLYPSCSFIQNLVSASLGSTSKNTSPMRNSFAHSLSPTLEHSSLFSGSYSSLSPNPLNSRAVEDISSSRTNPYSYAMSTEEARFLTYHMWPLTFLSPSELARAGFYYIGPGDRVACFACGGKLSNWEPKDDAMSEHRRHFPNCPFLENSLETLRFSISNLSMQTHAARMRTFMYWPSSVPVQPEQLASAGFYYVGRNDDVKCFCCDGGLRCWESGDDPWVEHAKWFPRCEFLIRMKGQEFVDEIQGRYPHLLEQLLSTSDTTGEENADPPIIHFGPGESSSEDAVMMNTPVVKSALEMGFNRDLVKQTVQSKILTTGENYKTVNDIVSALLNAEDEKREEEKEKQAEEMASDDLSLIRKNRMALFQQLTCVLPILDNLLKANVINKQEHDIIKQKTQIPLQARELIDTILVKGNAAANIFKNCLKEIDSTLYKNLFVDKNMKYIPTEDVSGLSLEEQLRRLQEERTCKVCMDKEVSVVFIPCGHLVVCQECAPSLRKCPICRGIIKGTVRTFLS
Experiment: Inhibition of cIAP (unknown origin) assessed as inhibition of cIAP-BIR3 interaction by TR-FRET assay
pIC50: −log10 of the molar value.
parameter-measured: pIC50

> print(dat)
                         chemical.structure  meas.value
1  COc1cc2c(cc1OC(C)C)[C@H](c1ccc(Cl)cc1)N(c1ccc(N(C)C[C@H]3CC[C@H](N4CCN(C)C(=O)C4)CC3)cc1)C(=O)C2      < 4.30

###

fraction unbound values by entry
Assay: Protein binding in Sprague-Dawley rat plasma by equilibrium dialysis method
Type: ADME, cell-free
Details: read-out: PPB
parameter-measured: fraction unbound

> print(dat)
                                   compound  meas.value
1  COc1cc2c(cc1OC(C)C)[C@H](c1ccc(Cl)cc1)N(c1ccc(N(C)C[C@H]3CC[C@H](N4CCNC(=O)C4)CC3)cc1)C(=O)C2      < 0.01
2  COc1cc2c(cc1OC(C)C)[C@H](c1ccc(Cl)cc1)N(c1ccc(N(C)C[C@H]3CC[C@H](N4CCN(C)C(=O)C4)CC3)cc1)C(=O)C2 [CGM-097]      < 0.01
3  CC[C@@H](C)Oc1cc2c(cc1OC)CC(=O)N(c1ccc(N(C)C[C@H]3CC[C@H](N(C)C)CC3)cc1)[C@H]2c1ccc(Cl)cc1      < 0.01

###

System: Rattus norvegicus
Assay: Volume of distribution at steady state in Sprague-Dawley rat at 1 mg/kg, iv
Assay type: ADME, organism-based
Details: in vivo
parameter-measured: Vdss (L/kg)

> print(dat)
                                   compound  parameter.measured  meas.value
1  COc1cc2c(cc1OC(C)C)[C@H](c1ccc(Cl)cc1)N(c1ccc(N(C)C[C@H]3CC[C@H](N4CCN(C)C(=O)C4)CC3)cc1)C(=O)C2 [CGM-097]                Vdss         6.4

###

Assay: Permeability from apical to basolateral side in human Caco2 cells
Format: ADME, cell-based
Details: Caco-2
parameter-measured: Papp A→B

> print(dat)
                         chemical.structure       meas.value
1  CC[C@@H](C)Oc1cc2c(cc1OC)CC(=O)N(c1ccc(N(C)C[C@H]3CC[C@H](N(C)C)CC3)cc1)[C@H]2c1ccc(Cl)cc1  0.08 ×10⁻⁶ cm/s

###

Test system: SJSA-1
Test: Inhibition of cell proliferation of human SJSA1 cells
Each record is given criterion met if its reported GI50 is strictly below 0.9 µM. Records at or above 0.9 µM are given criterion not met.

> print(dat)
                                    compound        label.class
 1  CC[C@@H](C)Oc1cc2c(cc1OC)CC(=O)N(c1ccc(N(C)Cc3ccncc3)cc1)[C@@H]2c1ccc(Cl)cc1  criterion not met
 2  COc1cc2c(cc1OC(C)C)[C@H](c1ccc(Cl)cc1)N(c1ccc(N(C)C[C@H]3CC[C@H](N4CNC(=O)C4)CC3)cc1)C(=O)C2      criterion met
 3  CC[C@@H](C)Oc1cc2c(cc1OC)CC(=O)N(c1ccc(N(C)CC3CCNCC3)cc1)C2c1ccc(Cl)cc1 (some centres not stated)  criterion not met
 4  CC[C@@H](C)Oc1cc2c(cc1OC)CC(=O)N(c1ccc(N(C)Cc3ccncc3)cc1)C2c1ccc(Cl)cc1 (some centres not stated)  criterion not met
 5  COc1cc2c(cc1OC(C)C)[C@H](c1ccc(Cl)cc1)N(c1ccc(N(C)C[C@H]3CC[C@H](N4CCN(C)C(=O)C4)CC3)cc1)C(=O)C2 [CGM-097]      criterion met
 6  CC[C@@H](C)Oc1cc2c(cc1OC)CC(=O)N(c1ccc(N(C)C[C@H]3CC[C@H](N(C)C)CC3)cc1)[C@H]2c1ccc(Cl)cc1  criterion not met
 7  COc1cc2c(cc1OC(C)C)[C@H](c1ccc(Cl)cc1)N(c1ccc(N(C)C[C@H]3CC[C@H](N4CCNC(=O)C4)CC3)cc1)C(=O)C2      criterion met
 8  CCC(=O)N[C@H]1CC[C@H](CN(C)c2ccc(N3C(=O)Cc4cc(OC)c(O[C@H](C)CC)cc4[C@@H]3c3ccc(Cl)cc3)cc2)CC1  criterion not met
 9  CC[C@@H](C)Oc1cc2c(cc1OC)CC(=O)N(c1ccc(N(C)C[C@H]3CC[C@H](N)CC3)cc1)C2c1ccc(Cl)cc1 (some centres not stated)  criterion not met
10  CC[C@@H](C)Oc1cc2c(cc1OC)CC(=O)N(c1ccc(N(C)C[C@H]3CC[C@H](N(C)C)CC3)cc1)C2c1ccc(Cl)cc1 (some centres not stated)  criterion not met
11  COc1cc2c(cc1OC(C)C)[C@H](c1ccc(Cl)cc1)N(c1ccc(N(C)C[C@H]3CC[C@H](N(C)C)CC3)cc1)C(=O)C2      criterion met
12  CC[C@@H](C)Oc1cc2c(cc1OC)CC(=O)N(c1ccc(N(C)Cc3ccncc3)cc1)[C@H]2c1ccc(Cl)cc1  criterion not met

###

Test: Terminal half life in cynomolgus monkey at 0.1 mg/kg, iv
Type: ADME, organism-based, Macaca fascicularis
Details: in vivo, read-out: beta t1/2 (converted)
parameter-measured: half-life (h)

> print(dat)
                                   molecule  measure.unit  meas.value
1  COc1cc2c(cc1OC(C)C)[C@H](c1ccc(Cl)cc1)N(c1ccc(N(C)C[C@H]3CC[C@H](N4CCN(C)C(=O)C4)CC3)cc1)C(=O)C2 [CGM-097]             h         8.3
